assayed-system: angiotensin converting enzyme (Cavia porcellus, UniProt H0UWL7)
Sequence (H0UWL7 33-1302): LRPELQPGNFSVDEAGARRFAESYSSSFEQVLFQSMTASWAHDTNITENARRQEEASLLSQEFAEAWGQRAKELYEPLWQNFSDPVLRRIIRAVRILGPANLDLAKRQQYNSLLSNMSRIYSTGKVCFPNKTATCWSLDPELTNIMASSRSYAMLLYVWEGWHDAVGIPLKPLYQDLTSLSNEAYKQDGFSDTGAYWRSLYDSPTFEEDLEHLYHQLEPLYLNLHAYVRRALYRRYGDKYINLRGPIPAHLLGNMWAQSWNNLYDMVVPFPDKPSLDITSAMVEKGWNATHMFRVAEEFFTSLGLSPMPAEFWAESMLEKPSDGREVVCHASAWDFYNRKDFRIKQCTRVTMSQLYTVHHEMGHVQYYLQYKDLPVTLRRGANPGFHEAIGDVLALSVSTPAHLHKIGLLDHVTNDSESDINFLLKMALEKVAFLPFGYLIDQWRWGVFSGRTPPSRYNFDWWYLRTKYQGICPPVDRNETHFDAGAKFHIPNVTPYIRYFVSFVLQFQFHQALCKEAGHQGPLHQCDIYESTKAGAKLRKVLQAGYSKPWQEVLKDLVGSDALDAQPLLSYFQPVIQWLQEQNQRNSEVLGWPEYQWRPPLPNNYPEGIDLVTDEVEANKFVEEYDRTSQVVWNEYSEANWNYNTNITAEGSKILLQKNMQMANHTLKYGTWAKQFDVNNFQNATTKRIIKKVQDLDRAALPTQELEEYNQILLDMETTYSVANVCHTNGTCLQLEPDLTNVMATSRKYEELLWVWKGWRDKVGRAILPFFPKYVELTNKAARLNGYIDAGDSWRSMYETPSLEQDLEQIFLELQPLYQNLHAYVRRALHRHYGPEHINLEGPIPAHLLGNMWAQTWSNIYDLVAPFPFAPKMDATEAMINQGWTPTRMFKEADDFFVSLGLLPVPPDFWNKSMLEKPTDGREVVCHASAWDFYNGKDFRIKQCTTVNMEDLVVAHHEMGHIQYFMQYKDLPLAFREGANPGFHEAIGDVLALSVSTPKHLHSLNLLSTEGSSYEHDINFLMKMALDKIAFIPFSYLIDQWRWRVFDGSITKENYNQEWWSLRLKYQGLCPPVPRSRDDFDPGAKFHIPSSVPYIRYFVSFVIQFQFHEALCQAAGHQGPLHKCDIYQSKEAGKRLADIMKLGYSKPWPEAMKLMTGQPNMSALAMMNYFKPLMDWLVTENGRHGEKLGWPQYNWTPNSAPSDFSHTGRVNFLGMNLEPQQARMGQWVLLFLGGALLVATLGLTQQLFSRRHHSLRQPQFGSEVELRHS
readout-label: IC50 (nM)
Give bare numbers, in nM.

Read off the recorded IC50 for CC(C)NC[C@H](O)COc1cccc2[nH]c(C(=O)NCCCC[C@H](N[C@@H](C)C(=O)N3CCC[C@H]3C(=O)O)C(=O)O)cc12
1.4
